Origin of measurements: patent US8124610B2

- Subject Of Test: hSCN9A (Homo sapiens)
- Construct: expressed in transfected cells
- Sequence (Q15858 whole entry): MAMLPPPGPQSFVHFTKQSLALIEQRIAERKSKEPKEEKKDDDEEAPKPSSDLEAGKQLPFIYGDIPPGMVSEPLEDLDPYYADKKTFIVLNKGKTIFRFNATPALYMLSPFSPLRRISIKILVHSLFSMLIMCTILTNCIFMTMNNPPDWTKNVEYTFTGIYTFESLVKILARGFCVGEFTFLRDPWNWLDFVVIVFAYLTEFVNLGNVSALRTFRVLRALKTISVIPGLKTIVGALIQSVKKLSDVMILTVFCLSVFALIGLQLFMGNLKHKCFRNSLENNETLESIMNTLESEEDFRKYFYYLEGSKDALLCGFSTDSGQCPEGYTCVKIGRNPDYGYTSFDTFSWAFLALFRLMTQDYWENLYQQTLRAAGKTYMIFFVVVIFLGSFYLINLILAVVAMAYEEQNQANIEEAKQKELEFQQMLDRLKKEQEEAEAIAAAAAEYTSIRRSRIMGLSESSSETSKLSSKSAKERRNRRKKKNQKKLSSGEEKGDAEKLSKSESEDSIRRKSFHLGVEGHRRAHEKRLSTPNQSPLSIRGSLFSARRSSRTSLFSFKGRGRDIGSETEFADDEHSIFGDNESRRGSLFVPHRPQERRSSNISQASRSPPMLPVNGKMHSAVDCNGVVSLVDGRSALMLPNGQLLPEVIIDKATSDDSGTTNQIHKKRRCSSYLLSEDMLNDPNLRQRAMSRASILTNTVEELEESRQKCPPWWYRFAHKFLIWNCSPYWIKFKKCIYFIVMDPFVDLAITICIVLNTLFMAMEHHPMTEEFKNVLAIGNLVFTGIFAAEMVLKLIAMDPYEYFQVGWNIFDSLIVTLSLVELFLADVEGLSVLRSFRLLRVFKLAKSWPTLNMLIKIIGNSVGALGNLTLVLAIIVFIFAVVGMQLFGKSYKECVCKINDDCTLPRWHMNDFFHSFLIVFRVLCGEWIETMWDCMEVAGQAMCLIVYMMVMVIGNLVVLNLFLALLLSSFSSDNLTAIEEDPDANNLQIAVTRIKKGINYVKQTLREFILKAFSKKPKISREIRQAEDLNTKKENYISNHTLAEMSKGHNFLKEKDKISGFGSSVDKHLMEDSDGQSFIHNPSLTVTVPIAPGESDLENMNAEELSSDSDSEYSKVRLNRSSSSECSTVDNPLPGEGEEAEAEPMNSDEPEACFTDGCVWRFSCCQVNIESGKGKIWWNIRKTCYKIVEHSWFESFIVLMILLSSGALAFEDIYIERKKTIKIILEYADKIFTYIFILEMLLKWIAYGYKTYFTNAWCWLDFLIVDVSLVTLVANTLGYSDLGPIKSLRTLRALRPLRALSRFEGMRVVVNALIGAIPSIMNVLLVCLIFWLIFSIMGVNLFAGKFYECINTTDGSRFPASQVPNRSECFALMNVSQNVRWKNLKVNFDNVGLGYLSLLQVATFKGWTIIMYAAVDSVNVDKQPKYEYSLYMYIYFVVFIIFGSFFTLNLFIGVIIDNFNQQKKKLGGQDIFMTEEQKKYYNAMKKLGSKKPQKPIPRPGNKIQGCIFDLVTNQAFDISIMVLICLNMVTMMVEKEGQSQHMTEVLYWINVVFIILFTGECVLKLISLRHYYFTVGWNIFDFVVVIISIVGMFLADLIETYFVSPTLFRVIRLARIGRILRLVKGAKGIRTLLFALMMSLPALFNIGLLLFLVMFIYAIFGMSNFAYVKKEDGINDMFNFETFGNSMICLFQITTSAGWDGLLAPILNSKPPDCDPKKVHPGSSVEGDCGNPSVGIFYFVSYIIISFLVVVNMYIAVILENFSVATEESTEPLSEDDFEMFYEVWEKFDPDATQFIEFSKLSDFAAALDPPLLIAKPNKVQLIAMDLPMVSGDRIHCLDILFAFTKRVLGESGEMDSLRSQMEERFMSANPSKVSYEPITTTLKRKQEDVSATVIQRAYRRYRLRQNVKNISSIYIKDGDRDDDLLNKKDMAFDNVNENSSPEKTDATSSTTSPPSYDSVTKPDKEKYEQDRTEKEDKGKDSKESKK
- Protocol Summary: Whole-cell patch-clamp electrophysiology (conventional or PatchXpress), HEK cells expressing hSCN9A, estimated IC-50
- Type: cell-based
- Condition Info: estimated IC-50, HEK cells expressing hSCN9A; class symbols or bounds; read-out: SCN9A EIC-50
Attribute Measured: IC50

CC(C)(Oc1ccc(Cl)cc1)c1csc(Nc2ccc(S(=O)(=O)Nc3nccs3)cc2)n1 > 1000 nM
Cn1nc(C(C)(C)C)cc1Nc1ccc(S(=O)(=O)Nc2nccs2)c(F)c1 < 2000 nM
O=S(=O)(Nc1nccs1)c1ccc(Nc2ncn(Cc3ccc(Cl)cc3)n2)c(F)c1 < 2000 nM

Below: the item to evaluate.
response.value for O=S(=O)(Nc1nccs1)c1ccc(Nc2ccn(Cc3ccc(C(F)(F)F)cc3)n2)cc1F (field: IC50) = < 2000 nM

====

- Subject Of Test: hSCN3A (Homo sapiens, UniProt Q9NY46)
- Construct: expressed in transfected cells
- Sequence (Q9NY46 whole entry): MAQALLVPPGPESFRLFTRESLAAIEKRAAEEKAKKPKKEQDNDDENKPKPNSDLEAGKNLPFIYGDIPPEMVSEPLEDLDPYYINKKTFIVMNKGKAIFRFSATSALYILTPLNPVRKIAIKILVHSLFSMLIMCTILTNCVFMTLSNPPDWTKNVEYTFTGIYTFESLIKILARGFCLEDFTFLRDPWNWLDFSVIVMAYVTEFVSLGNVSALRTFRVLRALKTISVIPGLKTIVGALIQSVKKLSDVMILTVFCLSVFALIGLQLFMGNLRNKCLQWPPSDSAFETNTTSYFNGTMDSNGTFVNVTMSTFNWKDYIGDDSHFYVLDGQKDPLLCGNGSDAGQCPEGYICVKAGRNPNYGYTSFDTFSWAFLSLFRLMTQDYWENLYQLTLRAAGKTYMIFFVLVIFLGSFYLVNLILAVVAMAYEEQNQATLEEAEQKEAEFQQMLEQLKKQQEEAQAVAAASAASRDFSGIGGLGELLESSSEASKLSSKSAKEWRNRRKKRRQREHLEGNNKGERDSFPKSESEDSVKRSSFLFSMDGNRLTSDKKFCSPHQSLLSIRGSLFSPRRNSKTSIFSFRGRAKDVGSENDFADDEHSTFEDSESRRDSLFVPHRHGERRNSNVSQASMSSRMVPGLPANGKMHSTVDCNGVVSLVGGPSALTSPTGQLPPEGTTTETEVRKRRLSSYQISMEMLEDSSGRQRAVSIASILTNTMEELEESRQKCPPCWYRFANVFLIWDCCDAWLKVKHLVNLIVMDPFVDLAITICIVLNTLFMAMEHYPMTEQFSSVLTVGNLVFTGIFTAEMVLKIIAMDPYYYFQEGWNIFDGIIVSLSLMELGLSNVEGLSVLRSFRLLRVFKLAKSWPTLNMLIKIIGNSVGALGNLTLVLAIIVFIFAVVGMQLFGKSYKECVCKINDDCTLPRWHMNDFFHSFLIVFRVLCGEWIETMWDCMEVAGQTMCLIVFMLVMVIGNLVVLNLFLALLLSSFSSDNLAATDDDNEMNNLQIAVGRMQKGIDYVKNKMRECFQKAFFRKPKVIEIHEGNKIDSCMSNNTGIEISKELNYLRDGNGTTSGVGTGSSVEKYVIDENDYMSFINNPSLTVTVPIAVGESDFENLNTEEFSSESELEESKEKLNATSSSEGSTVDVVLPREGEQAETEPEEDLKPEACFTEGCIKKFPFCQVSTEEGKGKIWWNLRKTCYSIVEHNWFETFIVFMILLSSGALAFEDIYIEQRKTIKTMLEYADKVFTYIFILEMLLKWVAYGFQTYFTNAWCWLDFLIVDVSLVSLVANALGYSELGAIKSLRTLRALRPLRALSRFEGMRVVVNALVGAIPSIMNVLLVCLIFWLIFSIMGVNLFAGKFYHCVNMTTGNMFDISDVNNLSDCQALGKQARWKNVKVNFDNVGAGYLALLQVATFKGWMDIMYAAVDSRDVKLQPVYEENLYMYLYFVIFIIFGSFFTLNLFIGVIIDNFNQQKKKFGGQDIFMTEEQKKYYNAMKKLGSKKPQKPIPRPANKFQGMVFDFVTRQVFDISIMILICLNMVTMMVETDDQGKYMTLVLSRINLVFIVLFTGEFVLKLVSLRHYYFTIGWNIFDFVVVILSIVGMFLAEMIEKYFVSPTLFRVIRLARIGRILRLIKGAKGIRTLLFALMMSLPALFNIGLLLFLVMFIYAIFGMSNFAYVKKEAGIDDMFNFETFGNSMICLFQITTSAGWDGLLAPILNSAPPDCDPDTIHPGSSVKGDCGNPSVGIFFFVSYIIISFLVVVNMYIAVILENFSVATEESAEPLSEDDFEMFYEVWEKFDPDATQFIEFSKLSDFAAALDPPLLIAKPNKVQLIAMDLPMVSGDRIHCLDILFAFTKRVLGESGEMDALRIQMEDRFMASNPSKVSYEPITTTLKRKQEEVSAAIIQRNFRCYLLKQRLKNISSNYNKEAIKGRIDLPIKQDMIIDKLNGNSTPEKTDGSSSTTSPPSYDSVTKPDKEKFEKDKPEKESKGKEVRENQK
- Protocol Summary: Whole-cell patch-clamp electrophysiology (conventional or PatchXpress), HEK cells expressing hSCN3A, estimated IC-50
- Assay type: cell-based
- Condition Info: estimated IC-50, HEK cells expressing hSCN3A; class symbols or bounds; read-out: SCN3A EIC-50
Attribute Measured: IC50

O=S(=O)(Nc1nccs1)c1ccc(Nc2nc(C3(c4ccc(Cl)cc4)CCCC3)cs2)cc1 < 2000 nM
Cc1cc(Nc2ccc(S(=O)(=O)Nc3nccs3)c(F)c2)n(-c2ccc(F)cc2Cl)n1 < 2000 nM
O=S(=O)(Nc1nccs1)c1ccc(Nc2cncc(C(c3ccccc3)c3ccccc3)n2)cc1 < 2000 nM
O=S(=O)(Nc1nccs1)c1ccc(Nc2nc(Cc3ccc(F)cc3F)cs2)cc1 < 2000 nM

Memo: O=S(=O)(Nc1nccs1)c1ccc(Nc2nc(CCCOc3ccccc3)cs2)cc1 , reported IC50: < 2000 nM

IC50 reported for this compound COC(=O)c1sc(Nc2ccc(S(=O)(=O)Nc3nccs3)cc2)nc1C : < 2000 nM

get_value(item= COc1ccc(CCNCc2csc(Nc3ccc(S(=O)(=O)Nc4nccs4)cc3)n2)cc1OC , readout=IC50) returns > 1000 nM

Item: O=S(=O)(Nc1nccs1)c1ccc(Nc2ccn(Cc3ccc(Cl)cc3)n2)nc1 | IC50: < 2000 nM

Recorded result, O=S(=O)(Nc1nccs1)c1ccc(Nc2nccc(OCc3ccccc3F)n2)cc1 , IC50: 2000 to 10000 nM

====

Quick reference: IC50 of the listed items.
- Subject Of Test: hSCN3A (Homo sapiens)
- Construct: expressed in transfected cells
- Protocol Summary: Whole-cell patch-clamp electrophysiology (conventional or PatchXpress), HEK cells expressing hSCN3A, estimated IC-50
- Assay type: cell-based
- Condition Info: Table V; estimated IC-50 from single point electrophysiology, cells clamped at V1/2; read-out: SCN3A EIC-50
- Procedure: Human Embryonic Kidney (HEK) cells were transfected with hSCN3A or hSCN9A constructs using lipofectamine reagent (Invitrogen), using standard techniques. […] The voltage-dependence of inactivation was determined by applying a series of depolarizing prepulses (8 sec long in 10 mV increments) from a negative holding potential. […] Cells were then voltage clamped at the empirically determined V1/2. […]

Just so you know, measured IC50 for O=S(=O)(Nc1nccs1)c1ccc(Nc2cnn(Cc3ccc(Cl)cc3)c2)cc1F came out at < 2 µM

Record Cn1nc(Cc2ccc(Cl)cc2)cc1Nc1ccc(S(=O)(=O)Nc2nccs2)cc1 . Reported IC50: < 2 µM

Noted for CC(C)(C)c1cc(Nc2ccc(S(=O)(=O)Nc3nccs3)cc2)[nH]n1 : its IC50 reads 2 to 10 µM
